# Assay notes: mGlu5 Ca2+ Flux Assay: HEK 293A cells stably expressing rat mGlu5 were plated in black-walled, clear-bottomed, poly-D-lysine coated 384-well plates in 20 μL of assay medium (DMEM containing 10% dialyzed FBS, 20 mM HEPES, 100 units/mL penicillin/streptomycin plus 250 ng/mL Fungizone, and 1 mM sodium pyruvate) at a density of 20K cells/well. The cells were grown overnight at 37° C. in the presence of 5% CO2. The next day, medium was removed and the cells incubated with 20 μL of 2.3 μM Fluo-4, AM prepared as a 2.3 mM stock in DMSO and mixed in a 1:1 ratio with 10% (w/v) pluronic acid F-127 and diluted in assay buffer (Hank's balanced salt solution, 20 mM HEPES, and 2.5 mM probenecid) for 45 minutes at 37° C. Dye was removed, 20 μL of assay buffer was added, and the plate was incubated for 5 minutes at room temperature.
Readout label: IC50 (nM)
Lab book: enter the figure in nM, no units written.

Request: Reported IC50 for O=C1c2cc(CNc3ccc(OC(F)F)cc3)nn2CCN1c1ccc(F)cc1 : what is it?
Response: 334

Request: Which IC50 is reported for this compound? Cc1cccc(NCc2cc3n(n2)[C@H](C)CN(c2ccc(F)cc2)C3=O)c1
Response: 1210
